Answer each item with its documented GI50.
# System: TK-10
# TEST NAME: NCI tumour cell line growth inhibition, 48 h
Calls of active or inactive are those of the source. Cut-off read from the data, not from the text of the source: active = GI50 up to about 1.1 µM and inactive = higher. Where a SMILES comes first, the peptide text is derived from it. The star is where a group is joined. OSu = O=C1CCC(=O)N1O*; OBn = c1ccc(CO*)cc1; Bn = c1ccc(C*)cc1

Give GI50 for each of the items listed below.
1. CN1C(=O)c2ccccc2NC(=O)C12O[C@@H]2c1cccc(O)c1 (some centres undefined)
2. O=C1OC(C(O)CO)C(C(O)CO)OC1=O (centres undefined)
3. CN1C(CC(O)c2ccccc2)CCCC1CC(O)(c1ccccc1)c1ccccc1 (centres undefined)
4. OC(Cc1ccc2ccccc2n1)(C(F)(F)F)C(F)(F)F
5. O=C(O)CCC(=O)c1ccc2sc3ccccc3c2c1
6. Cc1ccc(S(=O)(=O)C2=C(C(C)C)N=NC2(C)C)cc1

Resp:
1. > 100 µM (inactive)
2. > 10 µM (inactive)
3. 18.5 µM (inactive)
4. > 10 µM (inactive)
5. 91.6 µM (inactive)
6. > 100 µM (inactive)

Quick one: give me GI50 for each item below, same order please.
1. CN1CCCNCCN(CCc2ccccn2)CCCN(C)CC1
2. CC(C)CC(NC(=O)C(COc1ccc([N+](=O)[O-])cc1)Cc1ccccc1)C(=O)Nc1ccccc1 (centres undefined)
3. CCN(CC)C(=O)C(C)n1cc(C)c(=O)[nH]c1=O (centres undefined)
4. Nn1c(S)nnc1N/N=C1/C(=O)Nc2c(Cl)cc(Cl)cc21
5. CN1CCc2c1nc(-c1ccc([N+](=O)[O-])cc1)c1c2N(C)CC1
6. CC(C)CC(NC(=O)C(N)CCC(=O)OCc1ccccc1)C(=O)NC(COCc1ccccc1)C(=O)NC(Cc1ccccc1)C(=O)ON1C(=O)CCC1=O (centres undefined) (H-E(OBn)LS(Bn)F-OSu; configuration not given here)
7. CCOC(=O)CCC(NC(=O)c1ccc(NCc2ccc3nc(OC)c(OC)nc3c2)c2ccccc12)C(=O)OCC (centres undefined)

Resp:
> 100 µM (inactive)
11.5 µM (inactive)
> 100 µM (inactive)
> 100 µM (inactive)
> 100 µM (inactive)
26.7 µM (inactive)
66.2 µM (inactive)

Quick one: give me GI50 for each item below, same order please.
1. Cc1cc2cccc(Cl)c2nc1C(=O)c1ccccc1
2. COc1ccc(-n2c(=O)c3nc(S)[nH]c3n(-c3ccc(OC)cc3)c2=S)cc1
3. Cc1cccc2c1CC1(C2)Cc2c(C)cccc2C1=O (centres undefined)

Resp:
> 100 µM (inactive)
> 100 µM (inactive)
23.6 µM (inactive)

* * *

# System: DU-145
# TEST NAME: NCI tumour cell line growth inhibition, 48 h
Active and inactive are the calls of the source. No stated cut-off is given here; in the data, active = GI50 up to about 1.1 µM and inactive = higher.
Can you tell me GI50 for the items I'm about to list?

Here are 5 compounds together with their reported answers.
COMPOUND	RESULT
O=P1(c2ccccc2)c2ccccc2CCc2ccccc21	72.8 µM (inactive)
CCOC(=O)c1c(-c2ccc(OC)c(O)c2)c(C#N)c(=S)n(C2OC(CO)C(O)C(O)C2O)c1-c1ccccc1 (configuration not stated)	> 100 µM (inactive)
NC1CC(=O)c2sc(I)cc21 (configuration not stated)	> 100 µM (inactive)
CC(CSC(=N)N)C(N)=O (configuration not stated)	> 100 µM (inactive)
Cc1c(C#N)c(=N)oc2ccccc12	> 100 µM (inactive)

Each of the following entries comes with a recorded value; kindly state GI50 for each.
1. COc1nc2nccnc2c(=O)n1C
2. COc1ccc(/N=N/C(=O)NC(CC(C)C)C(=O)NCC(=O)O)cc1 (configuration not stated)

Resp:
> 10 µM (inactive)
12.2 µM (inactive)

* * *

# System: HCT-15
MEASUREMENT TYPE: GI50

COMPOUND	GI50
CCOC(=O)C1C(c2cc(OC)c(O)c(OC)c2)c2cc3c(cc2OC1(C)O)OCO3 (centres undefined)	46.6 µM

Below are 4 compounds. Give each one its GI50.
1. Cc1cc2c(c(C(=O)NCC(=O)N[C@@H](C)C(=O)OCc3ccccc3)c1)Oc1c(cc(C)cc1C(=O)NCC(=O)N[C@@H](C)C(=O)OCc1ccccc1)S2
2. CC(C)(C)n1c(=O)n2c(-c3ccccc3)c(-c3ccccc3)n2c1=O
3. C=C1C(=O)O[C@H]2C[C@@H]1[C@@H](O)[C@H](O)[C@@H](C)CCCC(C)=CCC[C@@]2(C)O
4. Cc1cc2c(=O)n(-c3ccc(F)cc3)c(C)nc2c(C(=O)O)c1C

Resp:
1: > 100 µM; 2: > 100 µM; 3: 22.9 µM; 4: > 100 µM

// each compound listed below needs its GI50
1. O=c1[nH]c(=O)n(C2CC(O)C(CS)O2)cc1F (centres undefined)
2. COC(=O)c1cc2c(c3c1CC(Cc1ccccc1)C3=O)CCC2 (centres undefined)
3. Cc1nc(-n2nc(-c3ccccc3)cc2-c2ccccc2)sc1C(=O)/C=C/c1ccccc1

Resp:
74.5 µM
35 µM
> 100 µM

Req: Give a short answer stating reported GI50 for "Oc1ccc2ccccc2c1/N=N/c1ccc(/N=N/c2ccccc2)cc1" .
Resp: > 100 µM

* * *

Consider the following compounds; for each one, report its GI50.
# Tested on: CCRF-CEM
# TEST NAME: NCI tumour cell line growth inhibition, 48 h
Counter-ions that a name gives are not always drawn. The source made the active and inactive calls. Rule as the data show it: active = GI50 up to about 1.1 µM and inactive = higher.

Some compounds with recorded GI50:
COMPOUND	GI50
NC(=O)C(=O)C(c1ccccc1)S(=O)(=O)Cc1ccccc1 (centres undefined)	> 100 µM (inactive)
CC(=O)N(C)c1ccc(Nc2cc(C)nc3ccc4nc[nH]c4c23)cc1 [ACODAZOLE HYDROCHLORIDE]	3.01 µM (inactive)
CN1CCc2c1nc(-c1ccc([N+](=O)[O-])cc1)c1c2N(C)CC1	> 100 µM (inactive)
C=C(C)CCC(=O)[C@](C)(O)[C@H]1[C@H](O)C[C@@]2(C)[C@@H]3CCc4c(cc(OC5OC(CO)C(O)C(O)C5O)c(O)c4C)C3(C)C(=O)C[C@]12C (some centres undefined)	> 100 µM (inactive)
Cn1c2nc3ccccc3c-2cc2ccccc21 [NEOCRYPTOLEPINE HYDROCHLORIDE]	4.4 µM (inactive)
NCP(=O)(O)OCC(=O)O	> 100 µM (inactive)

Report GI50 for every entry below.
1. Nn1c(S)nnc1N/N=C1/C(=O)Nc2c(Cl)cc(Cl)cc21
2. C=C1C(=O)O[C@H]2C[C@@H]1[C@@H](O)[C@H](O)[C@@H](C)CCCC(C)=CCC[C@@]2(C)O

Resp:
1. 37.1 µM (inactive)
2. > 100 µM (inactive)

Req: Please give the documented GI50 of "O=C1C(Br)=CC2(C=C1Br)CCNC1=C2C2=NCCc3c[nH]c(c32)C1=O"
Resp: 0.0198 µM (active)

* * *

# Test system: SN12C
# TEST NAME: NCI tumour cell line growth inhibition, 48 h
Activity calls are given as the source filed them. Rule as the data show it: active = GI50 up to about 1.1 µM and inactive = higher.
Allowed answers: YES = active, NO = inactive

Please review the entries below; each comes with its answer.
MOLECULE	LABEL
COC1CC(OC2C(C)OC(OC3C(C)OC(OC4C(O)CC(O[C@H]5CC[C@@]6(C)C(=CC[C@]7(O)[C@@H]6C[C@@H](OC(C)=O)[C@@]6(C)[C@]7(O)CC[C@@]6(O)C(C)=O)C5)OC4C)CC3OC)CC2OC)OC(C)C1O (stereo not given in full)	NO
FC(F)(F)c1cccc2ns[s+]c12	NO
COc1ccc2nc3c(c(N)c2c1)C1CCC3C1(C)C (stereo not given)	NO
COc1ccc(O)c(/C(C)=N/NC(=S)N(C)C)c1	NO
[N-]=[N+]=CC(=O)OC1Cc2ccccc2C1	NO

Req: Please let me know the test result on file for "CO/N=C(\C)c1cccc(Nc2c3ccccc3nc3occc23)c1" .
Resp: NO

Req: Dear colleague, could you share the recorded outcome for "CCn1c(SCC(=O)N/N=C2\SCC(=O)N2c2ccc(C)cc2)nc2ccccc2c1=O" when you have a moment?
Resp: NO

Req: # fetch the recorded call for "COc1cccc(O)c1-c1cc(=O)c2c(O)c(OC)c(OC)c(OC)c2o1" here
Resp: NO

Req: Check the results log: what was the call for "Cc1c(-c2coc(-c3ccccc3)n2)c(=O)n(-c2ccccc2)n1C" ?
Resp: NO

Req: Just curious, what result did COc1ccc(C2C(=O)C(Cl)N2Nc2nc(C)cc(O)n2)cc1OC (stereo not given) get here?
Resp: NO

* * *

# Test system: MDA-N
# TEST NAME: NCI tumour cell line growth inhibition, 48 h
Activity calls are given as the source filed them. Cut-off read from the data, not from the text of the source: active = GI50 up to about 1.1 µM and inactive = higher.
Hi there, I'd appreciate the recorded GI50 for every entry that follows.

Past entries and their recorded results:
MOLECULE	RESULT
O=C(O)CCC(NC(=O)c1ccc(CNc2nc3ccccc3nc2C(=O)O)cc1)C(=O)O (stereo unspecified)	> 100 µM (inactive)
Cc1c(C#N)c(=N)oc2ccccc12	> 100 µM (inactive)
O=C(CN1CCOCC1)CC(O)(C(F)(F)F)C(F)(F)F	> 100 µM (inactive)
[N-]=[N+]=Nc1ccccc1C(=O)N1C(=O)c2ccccc2C(=O)N(C(=O)c2ccccc2N=[N+]=[N-])c2ccccc21	59.3 µM (inactive)
CN1C(CC(O)c2ccccc2)CCCC1CC(O)(c1ccccc1)c1ccccc1 (stereo unspecified)	18.5 µM (inactive)

Hi, could you look up GI50 for each item in my list?
1. Cc1cc2ccccc2n1CC(=O)NCC(C)C
2. CC1(C)Oc2ccc(Cl)cc2C12CC2
3. CO/N=C(\C)c1cccc(Nc2c3ccccc3nc3occc23)c1
4. Cn1c(S)nnc1-c1csc(-c2ccc(Cl)cc2)n1
5. CCOC(=O)C(CC(C)C)NC(=O)C(N)Cc1ccc(N(CCCl)CCCl)cc1 (stereo unspecified)
6. CCSc1nc(COC(=O)NC)c(COC(=O)NC)n1C

Resp:
["> 100 µM (inactive)", "17.8 µM (inactive)", "4.35 µM (inactive)", "61 µM (inactive)", "12.6 µM (inactive)", "> 100 µM (inactive)"]
